tested on: tissue strips obtained from Landrace pig bladders; assay: Functional potassium channel opening activity in isolated bladder strips (field-stimulated twitch); conditions: Sus scrofa, amount of agent necessary to cause 50% of the agent's maximal response; read-out: ED50 (the source's name)
pEC50: −log10 of the molar value.
Record 1 whenever pEC50 is at 5 or higher; record 0 when lower.

These recorded examples may help you get a feel for the data.
Ask: Item Cc1ccc(C(=O)NC(NC(=S)Nc2ccccc2F)C(F)(F)F)cc1 (stereo not drawn) with pEC50 of 5 or above?
Reply: 0

Ask: // next record O=C(CCc1ccccc1)NC(NC(=S)Nc1cccc([N+](=O)[O-])c1)C(Cl)(Cl)Cl (stereo not drawn)
Reply: 1

Ask: Try the compound CC(C)(C)C(NC(=O)c1ccccc1)NC(=S)Nc1cccnc1 (stereo not drawn)
Reply: 0

Ask: Then CC(Cl)(Cl)C(NC(=O)c1cccc(Cl)c1)NC(=NC#N)Nc1cccnc1 (stereo not drawn) ?
Reply: 1

Ask: Queued: Cc1ccc(C(=O)NC(NC(=NC#N)Nc2ccccc2F)C(Cl)(Cl)Cl)cc1 (stereo not drawn)
Reply: 0

Ask: Same thing, different compound: CC(Cl)(Cl)C(NC(=O)c1cc(F)cc(F)c1)NC(=NC#N)Nc1ccc(C(F)(F)F)nc1 (stereo not drawn)
Reply: 1

***
Ask: Please indicate if the recorded pEC50 for CC(Cl)(Cl)C(NC(=O)c1cccc(Cl)c1)NC(=NC#N)Nc1ccc(Cl)nc1 (stereo not drawn) meets or exceeds 5.
Reply: 1

Ask: // query: N#CN=C(Nc1cccnc1)NC(NC(=O)c1ccccc1)C(Cl)(Cl)Cl (stereo not drawn)
Reply: 1

Ask: Note, next up: CC(Cl)(Cl)C(NC(=O)c1ccc(Cl)cc1)NC(=NC#N)Nc1ccccc1F (stereo not drawn)
Reply: 1

Ask: How about this compound: O=C(NC(NC(=S)Nc1ccccc1)C(F)(F)F)c1ccc(Cl)cc1 (stereo not drawn)
Reply: 0

Ask: COc1ncccc1NC(=NC#N)NC(NC(=O)c1cccc(Cl)c1)C(C)(Cl)Cl (stereo not drawn) , same question.
Reply: 1

Ask: Repeat with CC(Cl)(Cl)C(NC(=O)c1ccc(Cl)cc1)NC(=NC#N)Nc1ccc(F)nc1 (stereo not drawn)
Reply: 1

Ask: Likewise for CC(C)(C)OC(=O)N1CCC[C@@H]1[C@@H](NC(=O)c1ccc(Cl)cc1)NC(=NC#N)Nc1cccnc1 ?
Reply: 0

Ask: Field entry: CC(C)(C)C(NC(=O)c1ccc(Cl)cc1)NC(=S)Nc1cccnc1 (stereo not drawn)
Reply: 0

Ask: Next compound: C=CCC(C)(C)C(NC(=O)c1ccc(Cl)cc1)NC(=NC#N)Nc1cccnc1 (single isomer, unassigned; (-))
Reply: 1

Ask: Same thing, different compound: Cc1ccc(C(=O)N[C@@H](NC(=S)Nc2cccnc2)C(C)(C)C)cc1
Reply: 0
